Each record here notes measured Ki.
- Tested Target: Factor Xa
- Procedure Text: selectivity inhibition assay
Starred links: 1 amine or outer side, 2 acyl side, 3 side chain; linkers in the order of their positions; H or OH if unused. *: point of attachment. kbt‑6‑CONH‑Bn = ketobenzothiazole-6-CONH-benzyl (Kbt-benzylamide), O=C(NCc1ccccc1)c1ccc2nc(*)sc2c1; Kbt‑6‑CONH = ketobenzothiazole-6-CONH (amide link to Val), O=C(c1ccc2nc([*:1])sc2c1)[*:2]; kbt‑6‑COOH = ketobenzothiazole-6-COOH, O=C(O)c1ccc2nc(*)sc2c1; kbt = C-terminal ketobenzothiazole, c1ccc2sc(*)nc2c1; Kbt = ketobenzothiazole, c1ccc2sc(*)nc2c1; Fmoc = O=C(OCC1c2ccccc2-c2ccccc21)*
Give a bare numeral; the unit nM is implied.

The examples below pair each entry with its known result.
| Binder | Ki / nM |
| --- | --- |
| Ac-SKLR-{kbt‑6‑CONH‑Bn} [Ac-SKLR(SEQ ID NO: 10)-Kbt-benzylamide] | 190 |
| Ac-KRLR-{Kbt‑6‑CONH-Val-NH2} [Ac-KRLR(SEQ ID NO: 8)-Kbt-Val-NH2] | 17 |
| Ac-SKLR-{kbt‑6‑COOH} (SMILES CC(=O)N[C@@H](CO)C(=O)N[C@@H](CCCCN)C(=O)N[C@@H](CC(C)C)C(=O)N[C@@H](CCCNC(=N)N)C(=O)c1nc2ccc(C(=O)O)cc2s1) [Ac-SKLR(SEQ ID NO: 10)-Kbt-COOH] | 1250 |
| Ac-KQLR-Kbt (SMILES CC(=O)N[C@@H](CCCCN)C(=O)N[C@@H](CCC(N)=O)C(=O)N[C@@H](CC(C)C)C(=O)N[C@@H](CCCNC(=N)N)C(=O)c1nc2ccccc2s1) [Ac-KQLR(SEQ ID NO: 1)-Kbt] | 129 |
| H-Arg-Leu-Arg-{kbt-Val-NH2} [H-RLR-kbt-Val-NH2] | 18 |

[Q] Give the reported value of Ki for this record: Fmoc-Phe-Arg-kbt [Fmoc-FR-kbt]
[A] 28.4

[Q] Name the recorded Ki of the item H-Trp-Leu-Arg-kbt [H-WLR-kbt] in your answer.
[A] 532

Ref: patent US20180066015A1
